Molecular target: T1, recombinant cyno Tie2 extracellular domain (cynomolgus monkey, UniProt Q02763 23-748 (human entry))
T1 construct: also called Recombinant cyno Tie2 ECD; cy Tie2
T1 chain: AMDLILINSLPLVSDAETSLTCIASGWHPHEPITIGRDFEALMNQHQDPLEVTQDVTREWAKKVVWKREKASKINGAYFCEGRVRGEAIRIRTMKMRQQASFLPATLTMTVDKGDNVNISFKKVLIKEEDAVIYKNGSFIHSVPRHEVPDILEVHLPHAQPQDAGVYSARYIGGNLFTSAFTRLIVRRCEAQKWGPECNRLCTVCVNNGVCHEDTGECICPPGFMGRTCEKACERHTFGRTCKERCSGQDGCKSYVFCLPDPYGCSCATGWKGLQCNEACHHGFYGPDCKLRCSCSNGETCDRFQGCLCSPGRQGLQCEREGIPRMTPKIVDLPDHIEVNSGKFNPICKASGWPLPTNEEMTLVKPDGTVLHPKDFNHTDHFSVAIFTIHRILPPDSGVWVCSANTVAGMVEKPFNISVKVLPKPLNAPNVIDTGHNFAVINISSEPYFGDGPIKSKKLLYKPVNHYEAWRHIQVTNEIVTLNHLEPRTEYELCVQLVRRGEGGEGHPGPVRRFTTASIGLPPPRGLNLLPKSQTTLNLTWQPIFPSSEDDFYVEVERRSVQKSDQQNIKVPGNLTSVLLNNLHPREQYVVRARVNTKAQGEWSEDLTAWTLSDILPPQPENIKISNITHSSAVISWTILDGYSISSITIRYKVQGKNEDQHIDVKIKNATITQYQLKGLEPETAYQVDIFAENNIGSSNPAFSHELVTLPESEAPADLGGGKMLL
Test: SPR, IgG captured, 37C
propertyMeasured: Normalized Binding Signal, 300 nM
In your answer, state the number alone without any accompanying words.

Recorded Normalized Binding Signal, 300 nM, per entry:
binder | valueReported
Tie2.1.M100cF (antibody, IgG1, V domains shown, hIgG1 in the SPR and binning assays) VH: EVQLVESGGGLVQPGGSLRLSCAASGFTFSNTDISWVRQAPGKGLEWVGRISPSDGNTYYADSVKGRFTISADTSKNTAYLQMNSLRAEDTAVYYCARRTRWASWAFDYWGQGTLVTVSS VL: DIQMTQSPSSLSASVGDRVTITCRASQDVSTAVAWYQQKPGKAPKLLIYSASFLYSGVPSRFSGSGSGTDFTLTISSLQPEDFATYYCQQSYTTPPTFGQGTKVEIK | 0.14
Tie2.1.M100cW (antibody, IgG1, name in Kabat numbering, V domains shown, hIgG1) VH: EVQLVESGGGLVQPGGSLRLSCAASGFTFSNTDISWVRQAPGKGLEWVGRISPSDGNTYYADSVKGRFTISADTSKNTAYLQMNSLRAEDTAVYYCARRTRWASWAWDYWGQGTLVTVSS VL: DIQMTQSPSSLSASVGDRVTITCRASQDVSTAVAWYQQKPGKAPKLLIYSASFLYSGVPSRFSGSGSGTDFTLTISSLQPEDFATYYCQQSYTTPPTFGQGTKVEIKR | 0.07
Tie2.1.M100cK (antibody, IgG1, name in Kabat numbering, V domains shown, hIgG1) VH: EVQLVESGGGLVQPGGSLRLSCAASGFTFSNTDISWVRQAPGKGLEWVGRISPSDGNTYYADSVKGRFTISADTSKNTAYLQMNSLRAEDTAVYYCARRTRWASWAKDYWGQGTLVTVSS VL: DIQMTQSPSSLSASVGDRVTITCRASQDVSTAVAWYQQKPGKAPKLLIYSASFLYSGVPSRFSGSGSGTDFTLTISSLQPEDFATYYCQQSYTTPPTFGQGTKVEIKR | 0.11
Tie2.1.M100cH (antibody, IgG1, name in Kabat numbering, V domains shown, hIgG1) VH: EVQLVESGGGLVQPGGSLRLSCAASGFTFSNTDISWVRQAPGKGLEWVGRISPSDGNTYYADSVKGRFTISADTSKNTAYLQMNSLRAEDTAVYYCARRTRWASWAHDYWGQGTLVTVSS VL: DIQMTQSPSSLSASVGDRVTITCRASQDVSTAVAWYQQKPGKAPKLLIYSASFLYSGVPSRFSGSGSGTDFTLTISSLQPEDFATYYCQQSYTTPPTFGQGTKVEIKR | 0.1

// below: Normalized Binding Signal, 300 nM requested for another binder
Problem: Entry Tie2.1.M100cR (antibody, IgG1, name in Kabat numbering, V domains shown, hIgG1) VH: EVQLVESGGGLVQPGGSLRLSCAASGFTFSNTDISWVRQAPGKGLEWVGRISPSDGNTYYADSVKGRFTISADTSKNTAYLQMNSLRAEDTAVYYCARRTRWASWARDYWGQGTLVTVSS VL: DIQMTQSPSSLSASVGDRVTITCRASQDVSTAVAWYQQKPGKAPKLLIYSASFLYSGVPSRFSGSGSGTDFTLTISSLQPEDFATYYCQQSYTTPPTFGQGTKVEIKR has what Normalized Binding Signal, 300 nM?
Solution: 0.05
